# System: Fibroblast
# test_method_notes: Multiplex assay against human fibroblast
# Assay type: toxicity, cell-based
# measurement_setup: 24 h, 10 µM, compound concentration 10 uM, replicate 2
Rule: Population Mitotic Cells (%) below 50% gives rule met. Equal to or above 50% gives rule not met.

Some solved entries appear below for comparison.
- CC(C)(C)c1cc(NC(=O)Nc2ccc(-c3cn4c(n3)sc3cc(OCCN5CCOCC5)ccc34)cc2)no1 [QUIZARTINIB]: rule not met
- N#Cc1c(Oc2cccc(OS(=O)(=O)CCCC(F)(F)F)c2)cccc1C(F)(F)F: rule met
- CC(/C=C1\SC(=S)N(CCCC(=O)Nc2ccc(C(=O)O)c(O)c2)C1=O)=C\c1ccccc1: rule met
- Cl.NCCc1ccc(O)c(O)c1 [DOPAMINE HYDROCHLORIDE]: rule not met
- CCCCCC(O)/C=C/[C@H]1C(=O)CC(O)C1C/C=C\CCCC(=O)O (some centres undefined): rule not met

Report whether reported Population Mitotic Cells (%) is lower than 50% (strictly) for CC(=O)Nc1cccc2c1c(Sc1ccc(Cl)cc1)c(C)n2CC(=O)O [AZD1981]
rule met

Say whether its Population Mitotic Cells (%) is strictly beneath 50%. Entry: CCc1cc2cc(NS(=O)(=O)c3ccc(C#N)cc3)ccc2n(CC)c1=O
rule not met
